# TESTED SYSTEM: Histone deacetylase (Homo sapiens) (UniProt Q13547+O15379+Q9UBN7+Q92769+Q9UQL6+Q8WUI4+Q9BY41+Q96DB2+P56524+Q9UKV0+Q969S8)
# EXPERIMENT DESCRIPTION: Inhibition of HDAC (unknown origin) at 1 uM
# Format: protein assay
ATTRIBUTE MEASURED: inhibition (%)

O=C(Cc1ccncc1)Nc1ccc2cc(C(=O)NO)sc2c1; 84

(A) O=C(NCc1ccc2cc(C(=O)NO)sc2c1)c1cccnc1
(B) O=C(NO)c1cc2ccc(COc3ccccc3F)cc2s1
(C) O=C(NO)c1cc2ccc(COc3ccc(F)cc3)cc2s1
Sequence the entries by inhibition, beginning with the highest number. # answer = labels listed in requested order A, B, C
(A: 84%, B: 58%, C: 31%)

###

# TESTED SYSTEM: Histone deacetylase (Homo sapiens) (UniProt Q13547+O15379+Q9UBN7+Q92769+Q9UQL6+Q8WUI4+Q9BY41+Q96DB2+P56524+Q9UKV0+Q969S8)
# EXPERIMENT DESCRIPTION: Inhibition of HDAC (unknown origin) at 1 uM
# Assay type: protein assay
ATTRIBUTE MEASURED: inhibition (%)

O=C(NO)c1cc2ccc(CN(CCO)Cc3ccccc3)cc2s1; 80
O=C(NO)c1cc2ccc(COc3cccc(F)c3)cc2s1; 68
CN(C)c1ccc(CC(=O)Nc2ccc3cc(C(=O)NO)sc3c2)cc1; 82
O=C(Cc1ccccn1)Nc1ccc2sc(C(=O)NO)cc2c1; 74
CN(C)CCCC(=O)Nc1ccc2cc(C(=O)NO)sc2c1; 79
O=C(CCc1ccccc1)Nc1ccc2cc(C(=O)NO)sc2c1; 76
O=C(Cc1ncc[nH]1)Nc1ccc2cc(C(=O)NO)sc2c1; 78
O=C(NO)c1cc2ccc(CN(CCO)c3ccccc3)cc2s1; 76
O=C(Cc1ccccn1)Nc1ccc2cc(C(=O)NO)sc2c1; 78
O=C(Cc1ccc2c(c1)OCO2)Nc1ccc2cc(C(=O)NO)sc2c1; 78
O=C(Cc1ccsc1)Nc1ccc2cc(C(=O)NO)sc2c1; 87
O=C(NO)c1cc2cc(NCc3ccccc3)ccc2s1; 68

###

# TESTED SYSTEM: Histone deacetylase (Homo sapiens) (UniProt Q13547+O15379+Q9UBN7+Q92769+Q9UQL6+Q8WUI4+Q9BY41+Q96DB2+P56524+Q9UKV0+Q969S8)
# EXPERIMENT DESCRIPTION: Inhibition of HDAC (unknown origin) at 1 uM
# Format: protein assay
ATTRIBUTE MEASURED: inhibition (%)

Here are 4 compounds together with their reported answers.
COc1ccc(CC(=O)Nc2ccc3cc(C(=O)NO)sc3c2)cc1; 84
N[C@H](Cc1ccccc1)C(=O)Nc1ccc2cc(C(=O)NO)sc2c1; 77
N[C@@H](Cc1ccccc1)C(=O)Nc1ccc2cc(C(=O)NO)sc2c1; 81
COc1ccccc1CC(=O)Nc1ccc2cc(C(=O)NO)sc2c1; 81

(a) O=C(Cc1ccccc1)Nc1ccc2cc(C(=O)NO)sc2c1
(b) O=C(NO)c1cc2ccc(CSc3ccc(F)cc3)cc2s1
// compare: a vs b , metric inhibition, want the smaller The response must carry the label of the picked entry. b

###

# TESTED SYSTEM: Histone deacetylase (Homo sapiens) (UniProt Q13547+O15379+Q9UBN7+Q92769+Q9UQL6+Q8WUI4+Q9BY41+Q96DB2+P56524+Q9UKV0+Q969S8)
# EXPERIMENT DESCRIPTION: Inhibition of HDAC (unknown origin) at 0.1 uM
# Format: protein assay
ATTRIBUTE MEASURED: inhibition (%)

COc1ccccc1CC(=O)Nc1ccc2cc(C(=O)NO)sc2c1; 54
O=C(Cc1cccnc1)Nc1ccc2sc(C(=O)NO)cc2c1; 49
O=C(Cc1ccccc1)Nc1ccc2sc(C(=O)NO)cc2c1; 48

(1) O=C(NO)c1cc2ccc(COc3cccc(F)c3)cc2s1
(2) N[C@H](CCc1ccccc1)C(=O)Nc1ccc2cc(C(=O)NO)sc2c1
(3) O=C(Cc1ccncc1)Nc1ccc2cc(C(=O)NO)sc2c1
Could you please sort these 3 entries by inhibition from high to low? Please respond by ranking the labels in the order requested. 3, 2, 1
(3: 66%, 2: 44%, 1: 23%)

(P) O=C(NCc1ccc2cc(C(=O)NO)sc2c1)c1ccccc1
(Q) N[C@@H](Cc1ccccc1)C(=O)Nc1ccc2cc(C(=O)NO)sc2c1
inhibition comparison. Which is larger, P or Q ? Your answer should be the label of the entry you select. P

(a) O=C(NCc1ccc2cc(C(=O)NO)sc2c1)c1ccco1
(b) O=C(Cc1ccccn1)Nc1ccc2cc(C(=O)NO)sc2c1
When a and b are compared, which has the higher number for inhibition? # respond with the chosen item's label a
(a: 89%, b: 59%)

(a) O=C(Cc1ccc2c(c1)OCO2)Nc1ccc2cc(C(=O)NO)sc2c1
(b) CN(C(=O)CCc1ccccc1)c1ccc2sc(C(=O)NO)cc2c1
Return label of the item with the larger inhibition. Candidates: a , b . Pick one and reply with its label. a

###

# TESTED SYSTEM: Histone deacetylase
# EXPERIMENT DESCRIPTION: Inhibition of HDAC in human HeLa cells assessed as deacetylation of substrate by fluorescence plate reader analysis
# Format: cell-based
ATTRIBUTE MEASURED: IC50 (µM)

Cc1ccc2cc(C(=O)NO)sc2c1F; 0.458
Cc1cc2sc(C(=O)NO)cc2cc1O; 0.989
O=C(NO)c1cc2cccc(C(F)(F)F)c2s1; 9.19
O=C(NO)c1cc2ccsc2s1; 1.08

(a) O=C(NO)c1cc2c(Cl)cccc2s1
(b) O=C(NO)c1cc2ccccc2s1
(c) COc1cc2cc(C(=O)NO)sc2cc1C
(d) COc1cccc2sc(C(=O)NO)cc12
Please produce an ascending ranking of these compounds based on IC50. # format: label list in the order the request specifies c, b, d, a
(c: 1.35 µM, b: 2.17 µM, d: 3.79 µM, a: 11.63 µM)

###

# TESTED SYSTEM: Histone deacetylase (Homo sapiens) (UniProt Q13547+O15379+Q9UBN7+Q92769+Q9UQL6+Q8WUI4+Q9BY41+Q96DB2+P56524+Q9UKV0+Q969S8)
# EXPERIMENT DESCRIPTION: Inhibition of HDAC (unknown origin) at 1 uM
# Format: protein assay
ATTRIBUTE MEASURED: inhibition (%)

O=C(Cc1ccccc1)NCc1ccc2cc(C(=O)NO)sc2c1; 88
O=C(Cc1cccnc1)Nc1ccc2cc(C(=O)NO)sc2c1; 83
O=C(NCc1ccc2cc(C(=O)NO)sc2c1)c1ccco1; 92
O=C(NO)c1cc2ccc(NCCc3ccccc3)cc2s1; 73
O=C(NO)c1cc2ccc(CN3CCc4ccccc4C3)cc2s1; 83
N[C@H](CCc1ccccc1)C(=O)Nc1ccc2cc(C(=O)NO)sc2c1; 78
O=C(CCc1ccccc1)Nc1ccc2sc(C(=O)NO)cc2c1; 69
CN(C(=O)CCc1ccccc1)c1ccc2sc(C(=O)NO)cc2c1; 67

###

# TESTED SYSTEM: Histone deacetylase (Homo sapiens) (UniProt Q13547+O15379+Q9UBN7+Q92769+Q9UQL6+Q8WUI4+Q9BY41+Q96DB2+P56524+Q9UKV0+Q969S8)
# EXPERIMENT DESCRIPTION: Inhibition of HDAC (unknown origin) at 1 uM
# Assay type: protein assay
ATTRIBUTE MEASURED: inhibition (%)

O=C(Cc1ccccc1)Nc1ccc2sc(C(=O)NO)cc2c1; 82
O=C(NO)c1cc2cc(NCCc3ccccc3)ccc2s1; 61
N[C@@H](CCc1ccccc1)C(=O)Nc1ccc2cc(C(=O)NO)sc2c1; 85
CN(C(=O)CCc1ccccc1)c1ccc2cc(C(=O)NO)sc2c1; 63

###

# TESTED SYSTEM: Histone deacetylase (Homo sapiens) (UniProt Q13547+O15379+Q9UBN7+Q92769+Q9UQL6+Q8WUI4+Q9BY41+Q96DB2+P56524+Q9UKV0+Q969S8)
# EXPERIMENT DESCRIPTION: Inhibition of HDAC (unknown origin) at 0.1 uM
# Type: protein assay
ATTRIBUTE MEASURED: inhibition (%)

The following molecules have reported results that may help.
O=C(Cc1ncc[nH]1)Nc1ccc2cc(C(=O)NO)sc2c1; 24
CN(C)c1ccc(CC(=O)Nc2ccc3cc(C(=O)NO)sc3c2)cc1; 57

(I) O=C(NO)c1cc2ccc(CN(CCO)Cc3ccccc3)cc2s1
(II) CN(C(=O)CCc1ccccc1)c1ccc2cc(C(=O)NO)sc2c1
(III) O=C(NO)c1cc2ccc(CN(CCO)C(=O)Nc3ccccc3)cc2s1
Number of molecules to sort: 3. Sort criterion: inhibition, ascending. Use the labels to give the ranking in the order requested. II, I, III
(II: 21%, I: 52%, III: 77%)

(I) O=C(NO)c1cc2ccc(CN3CCc4ccccc4C3)cc2s1
(II) O=C(CCc1ccccc1)Nc1ccc2sc(C(=O)NO)cc2c1
Decide: I or II , by lowest recorded inhibition. Kindly state the label of the option you pick. II
(II: 28%, I: 53%)
